# System: MOLT-4 leukemia
# experimental-protocol: NCI-60 one-dose screen, 48 h (100 = growth as untreated, 0 = no growth, -100 = all killed)
# cond: 10 µM unless noted
Compounds without any hit were thinned out: in the full panel of roughly 83,000, 20% have a hit.
Assign class by growth: not lower than 80% means criterion met; lower than 80% means criterion not met.

Lookup: API: above_or_equal(metric=growth, cutoff=80%) for item CC1=C(C(=O)n2c3ccccc3c3ccccc32)C(c2cccc([N+](=O)[O-])c2)C(C(=O)n2c3ccccc3c3ccccc32)=C(C)N1
Found: criterion met

Lookup: Next up: NC(=O)OCCn1cc(-c2nc(-c3c[nH]c4ncccc34)cs2)c2ccccc21
Found: criterion not met

Lookup: Next up: COc1ccc(C2=NN(C(=O)c3cc(OC)c(OC)c(OC)c3)C(c3ccc(N(C)C)cc3)C2)cc1 (stereo not given)
Found: criterion not met

Lookup: Next up: O=C(O)C1CN(c2cccc(Cl)c2)N(c2cccc(Cl)c2)C1=O (stereo not given)
Found: criterion met

Lookup: Next up: O=C(N/N=C/c1ccc(O)cc1O)c1ccc(Nc2ccnc(C(F)(F)F)c2)cc1
Found: criterion not met
